- assayOverview: qHTS Assay to Identify Small Molecule Activators of BRCA1 Expression; note: nearly all actives have a fitted effect of over 80% in size
- conditions: MCF7-BRCA1-FFLuc reporter, luminescence, 48 h; series mostly up to 46.1 µM
About 4,000 (1.1%) of roughly 380,000 compounds were called active. Roughly 3% stayed inconclusive and do not appear here. Calls come from the whole dose curve; as a rule, active = well fitted activation curve with a large enough effect; inconclusive = small, poorly fitted or top-dose-only effect; inactive = no such curve, though single readings can be large or run the other way. Shown is part of a subset that was picked to be rich in actives.
Hi! Could you answer with just one of these? active, inactive

Worked examples, 4 compounds total:
COc1ccc2cc(CNc3ccc(OC)c(OC)c3)c(=O)n(CC(=O)Nc3ccccc3F)c2c1
inactive
COc1ccc(Nc2ncc(C(=O)N3CCN(c4ccccc4OC)CC3)c3ccccc23)cc1
inactive
COc1ccc(Nc2ncnc3sc(C)cc23)cc1
active
Cc1ccsc1/C=C1\SC(N2CCOCC2)=NC1=O
active

Fill in: this test's call for `CC(C)Cc1cc(C(=O)NCCc2ccccc2)no1` is ___
active

Next compound: `CN(CCOc1ccccc1)C(=O)c1cc(COc2c(F)cccc2F)on1`
inactive

* * *

- assayOverview: qHTS Assay to Identify Small Molecule Activators of BRCA1 Expression; note: nearly all actives have a fitted effect of over 80% in size; note: potency is the fitted concentration of half-maximal effect
- conditions: MCF7-BRCA1-FFLuc reporter, luminescence, 48 h; series mostly up to 46.1 µM
Hit rate of the full screen: of about 380,000 compounds, about 4,000 (1.1%) were called active. Roughly 3% stayed inconclusive and do not appear here. The sample holds actives, similar compounds and a random draw of the others, so the mix is not that of the screen.
assayEndpoint: Potency

Cc1ccc(S(=O)(=O)N2CCCCC2)cc1NC(=O)c1cccnc1
inactive
CC(C)(C)OC(=O)NCCCCCC(=O)N/N=C/c1coc2ccccc2c1=O
11.2 µM (active)
CCc1ccccc1NC(=O)Cc1ccc(NC(=O)N2CCCCc3ccccc32)cc1
inactive
CCN(CC)/[N+]([O-])=N/OCOC(=O)Cc1c(C)n(C(=O)c2ccc(Cl)cc2)c2ccc(OC)cc12
inactive
COc1ccc(Cn2c(C(=O)O)c(CNCCc3cccs3)c3ccc(OC)cc32)cc1
inactive

Need Potency of `Cc1cccc(NC(=O)CSc2nnc(CCCCCNC(=O)OC(C)(C)C)o2)c1C` , thanks.
inactive

Next molecule: `C[C@H](NC(=O)NCCc1ccccc1)C(=O)O`
inactive

Next molecule: O=C(NCCN1CCCC(O)C1)c1cc(COc2c(F)cccc2F)on1 (stereo unspecified)
inactive

Next molecule: `O=C(CC(=O)c1cccnc1)c1ccccc1`
inactive

Next molecule: `C/C(=C\C(=O)c1cccnc1)Nc1ccc(C)c(C)c1`
12.6 µM (active)

Next molecule: `O=C(CCNC(=O)c1ccccc1)NN=Cc1ccc(Br)o1`
inactive

* * *

- assayOverview: qHTS Assay to Identify Small Molecule Activators of BRCA1 Expression; note: nearly all actives have a fitted effect of over 80% in size
- conditions: MCF7-BRCA1-FFLuc reporter, luminescence, 48 h; series mostly up to 46.1 µM
The whole screen tested about 380,000 compounds, of which about 4,000 (1.1%) were called active. Another 3% or so got no clear call; they are omitted. Calls follow the shape of the dose curve; as a rule, active = well fitted activation curve with a large enough effect; inconclusive = small, poorly fitted or top-dose-only effect; inactive = no such curve, though single readings can be large or run the other way. The list comes from a sample in which actives are over-represented; it also holds close analogues and randomly drawn compounds.
Hi! Could you answer with just one of these? Y = active, N = inactive

Worked examples, 5 compounds total:
O=C(Nc1ccc(F)cc1F)c1cnn(-c2ccc(F)cc2)c1-n1cccc1
N
CN1C(=O)/C(=C/C=C2\SCCN2C)OC1=S
Y
Nc1cc(N)nc(SCc2cccc(F)c2)n1
Y
COc1ccc(CCNc2nc(-c3ccc(F)cc3)cc(C(F)(F)F)n2)cc1OC
N
N#Cc1cccc(CSc2ncnc(N)n2)c1
N

We now examine a further compound.
Fill in: this test's call for `Nc1nc(SCc2cccc(Br)c2)n[nH]1` is ___
N

* * *

- assayOverview: qHTS Assay to Identify Small Molecule Activators of BRCA1 Expression; note: nearly all actives have a fitted effect of over 80% in size
- conditions: MCF7-BRCA1-FFLuc reporter, luminescence, 48 h; series mostly up to 46.1 µM
Hit rate of the full screen: of about 380,000 compounds, about 4,000 (1.1%) were called active. Inconclusive results (about 3%) are left out. Calls follow the shape of the dose curve; as a rule, active = well fitted activation curve with a large enough effect; inconclusive = small, poorly fitted or top-dose-only effect; inactive = no such curve, though single readings can be large or run the other way. The list comes from a sample in which actives are over-represented; it also holds close analogues and randomly drawn compounds.
Hi! Could you answer with just one of these? True (active), False (inactive)

CN(CCOc1ccc(CC2SC(=O)NC2=O)cc1)c1ccccn1 (stereo not given)
False
COc1ccc(NC(=O)COC(=O)c2n[nH]c3ccccc23)c(OC)c1
False

Fill in: this test's call for `Cc1ccccc1CN1CCC(CNC(=O)c2c(C)oc3ncnc(N4CCCCC4)c23)CC1` is ___
False

Next compound: `CCC(=O)N1CCc2cc(Br)cc(S(=O)(=O)NCc3ccc(Cl)cc3)c21`
False

Next compound: `Cc1ccc(CN(C(=O)c2ccccc2[N+](=O)[O-])c2ccccn2)cc1`
False

Next compound: Cc1[nH]c2ccccc2c1C(c1ccccc1)c1cccs1 (stereo not given)
False

* * *

- assayOverview: qHTS Assay to Identify Small Molecule Activators of BRCA1 Expression; note: nearly all actives have a fitted effect of over 80% in size; note: potency is the fitted concentration of half-maximal effect
- conditions: MCF7-BRCA1-FFLuc reporter, luminescence, 48 h; series mostly up to 46.1 µM
The whole screen tested about 380,000 compounds, of which about 4,000 (1.1%) were called active. Roughly 3% stayed inconclusive and do not appear here. For the sample, actives were picked, then their nearest neighbours and some compounds at random.
assayEndpoint: Potency

Check out these entries, answers already filled in.
CCOc1ccc(S(=O)(=O)N(CC(=O)NCCSCc2ccc(C)cc2)c2ccccc2)cc1
inactive
N#Cc1nc(/C=C/c2ccc(F)cc2)oc1NCc1ccc(F)cc1
inactive
O=C(CSc1nc2ccccc2o1)N1CCN(c2ccccc2)CC1
inactive
CC(C)(C(=O)NO)c1ccccc1
inactive
Cc1cc(C(=O)NCCc2ccc(Cl)cc2)c(C)o1
8.91 µM (active)
Cc1cccc(-c2noc(CCC(=O)NC3CCCC3)n2)c1
inactive
Cc1ccc(/C=N/NC(=O)CSc2nc3ccccc3o2)cc1
11.2 µM (active)
O=C(COC(=O)Cc1ccc(Cl)cc1Cl)NCc1ccco1
inactive
O=C(Nc1cnn(Cc2ccc(Cl)cc2)c1)C1CCCC1
inactive
Cc1ccc(C)c(N2CCN(C(=O)CCc3nc(-c4cccc(C(F)(F)F)c4)no3)CC2)c1
inactive

Need Potency of `COC(=O)/C=C/C(=O)NCc1ccco1` , thanks.
inactive

Next molecule: `O=C(/C=C/c1ccc(Cl)cc1Cl)NCc1ccco1`
11.2 µM (active)

Next molecule: `Cc1ccc(Cc2nc(-c3cccc(C)c3)no2)cc1`
7.94 µM (active)

* * *

- assayOverview: qHTS Assay to Identify Small Molecule Activators of BRCA1 Expression; note: nearly all actives have a fitted effect of over 80% in size
- conditions: MCF7-BRCA1-FFLuc reporter, luminescence, 48 h; series mostly up to 46.1 µM
In all, about 380,000 compounds went through this assay and about 4,000 (1.1%) were called active. Not shown: some 3% with an inconclusive outcome. Calls come from the whole dose curve; as a rule, active = well fitted activation curve with a large enough effect; inconclusive = small, poorly fitted or top-dose-only effect; inactive = no such curve, though single readings can be large or run the other way. The sample as a whole holds a higher share of actives than the screen did.
Hi! Could you answer with just one of these? active, inactive

Worked examples, 5 molecules total:
O=C(Nc1cccc(Cl)c1N1CCOCC1)c1ccc2c(c1)OCCO2
inactive
CC(C)(C)C(=O)Nc1ccc(-c2cn3cccnc3n2)cc1
active
CC(C)(C)C(=O)Nc1cccc(-c2ccc[nH]2)n1
inactive
CCSc1ccccc1C(=O)Nc1ccc2c(c1)OCO2
active
CO[C@H]1O[C@@H]2O[C@@]3(C)CC[C@@H]4[C@@H](C)CC[C@@H]([C@H]1C)[C@@]24OO3
inactive

Fill in: this test's call for `Cc1cc(Nc2cccc(C(F)(F)F)c2)nc2ccc(NC(=O)c3ccc(=O)[nH]c3)cc12` is ___
inactive

* * *

- assayOverview: qHTS Assay to Identify Small Molecule Activators of BRCA1 Expression; note: nearly all actives have a fitted effect of over 80% in size
- conditions: MCF7-BRCA1-FFLuc reporter, luminescence, 48 h; series mostly up to 46.1 µM
- Description: Functionally, BRCA1 has been implicated in a wide array of cellular activities, including DNA damage repair, cell-cycle checkpoint control, growth inhibition, apoptosis, transcriptional regulation, chromatin remodeling, protein ubiquitylation, and mammary stem cell self-renewal and differentiation. […]
Out of some 380,000 compounds screened, about 4,000 (1.1%) were called active. About 3% were inconclusive and are not listed. Calls come from the whole dose curve; as a rule, active = well fitted activation curve with a large enough effect; inconclusive = small, poorly fitted or top-dose-only effect; inactive = no such curve, though single readings can be large or run the other way. Many of the other results were omitted from the sample, so actives are more common in it than they were.
Hi! Could you answer with just one of these? T = active, F = inactive

Worked examples, 3 compounds total:
COc1ccccc1-c1c(C)nn2c(C)c(C(C)=O)cnc12
F
COc1ccc(-c2cc(C(F)(F)F)n3nc(-c4ccccc4)cc3n2)cc1OC
F
c1ccc(-c2ccc(OCCN3CCOCC3)cc2)cc1
T

Fill in: this test's call for Cc1cc(OC(C)C(=O)Nc2sc3c(c2C(N)=O)CCCC3)ccc1Cl (configuration not stated) is ___
F

Next compound: `O=C(CCCCn1c(=O)c2ccccc2n(CC(=O)Nc2cccc(C(F)(F)F)c2)c1=O)NCc1ccc2c(c1)OCO2`
F

Next compound: `COc1cc2nc(N3CCCN(C)CC3)nc(NC3CC3)c2cc1OC`
F

Next compound: `CN(C)/C=C/C(=O)c1cnc2sccn2c1=O`
F
